test system: BEAS-2B human bronchial epithelial cell line; test: Gene expression change by high-throughput RNA sequencing (NextSeq 500) in ketone-exposed BEAS-2B cells; type: cell-based; details: IC20 conc.: Acetone 71.90, 2-Butanone 106.21, 2-Pentanone 39.38, 2-Hexanone 52.51, 2-Heptanone 20.22 mM

Compound | Fold change RBP3 (NM_002900)
CCCC(C)=O [2-Pentanone, 2-pentanone] | 0.356
CCC(C)=O [2-Butanone, 2-butanone] | 0.356
CC(C)=O [Acetone, acetone] | 0.376
CCCCCC(C)=O [2-Heptanone, 2-heptanone] | 0.354
CCCCC(C)=O [2-Hexanone, 2-hexanone] | 0.354

====

Fold change ZNF432 (NM_014650) values for the compounds below.
tested on: BEAS-2B human bronchial epithelial cell line; test: Gene expression change by high-throughput RNA sequencing (NextSeq 500) in ketone-exposed BEAS-2B cells; type: cell-based; conditions: IC5 conc.: Acetone 5.38, 2-Butanone 22.27, 2-Pentanone 5.24, 2-Hexanone 14.82, 2-Heptanone 5.05 mM

Compound string | Fold change ZNF432 (NM_014650)
CCCCC(C)=O | 5.206
CCCCCC(C)=O | 3.207
CCC(C)=O | 2.326
CC(C)=O | 4.647
CCCC(C)=O | 4.086

====

tested on: BEAS-2B human bronchial epithelial cell line; assay: Gene expression change by high-throughput RNA sequencing (NextSeq 500) in ketone-exposed BEAS-2B cells; assay type: cell-based; details: IC5 conc.: Acetone 5.38, 2-Butanone 22.27, 2-Pentanone 5.24, 2-Hexanone 14.82, 2-Heptanone 5.05 mM
Endpoint label: Fold change TSPAN1 (NM_005727)

Compound string | Tested target | Endpoint label | Result
CCCCC(C)=O | BEAS-2B human bronchial epithelial cell line | Fold change TSPAN1 (NM_005727) | 2.828
CCC(C)=O | BEAS-2B human bronchial epithelial cell line | Fold change TSPAN1 (NM_005727) | 2.540
CCCC(C)=O | BEAS-2B human bronchial epithelial cell line | Fold change TSPAN1 (NM_005727) | 4.281
CC(C)=O | BEAS-2B human bronchial epithelial cell line | Fold change TSPAN1 (NM_005727) | 5.935
CCCCCC(C)=O | BEAS-2B human bronchial epithelial cell line | Fold change TSPAN1 (NM_005727) | 4.660

====

tested on: BEAS-2B human bronchial epithelial cell line; experiment: Gene expression change by high-throughput RNA sequencing (NextSeq 500) in ketone-exposed BEAS-2B cells; format: cell-based; conditions: IC20 conc.: Acetone 71.90, 2-Butanone 106.21, 2-Pentanone 39.38, 2-Hexanone 52.51, 2-Heptanone 20.22 mM

Compound string | Fold change CHL1 (NM_001253387)
CCCC(C)=O | 0.273
CCC(C)=O | 0.268
CCCCCC(C)=O | 0.335
CCCCC(C)=O | 0.364
CC(C)=O | 0.360

====

tested on: BEAS-2B human bronchial epithelial cell line; test: Gene expression change by high-throughput RNA sequencing (NextSeq 500) in ketone-exposed BEAS-2B cells; type: cell-based; settings: IC5 conc.: Acetone 5.38, 2-Butanone 22.27, 2-Pentanone 5.24, 2-Hexanone 14.82, 2-Heptanone 5.05 mM
Endpoint label: Fold change GNA14 (NM_004297)

Compound | Tested target | Endpoint label | Quantitative result
CCCCCC(C)=O [2-Heptanone, 2-heptanone] | BEAS-2B human bronchial epithelial cell line | Fold change GNA14 (NM_004297) | 4.971
CC(C)=O [Acetone, acetone] | BEAS-2B human bronchial epithelial cell line | Fold change GNA14 (NM_004297) | 5.492
CCCCC(C)=O [2-Hexanone, 2-hexanone] | BEAS-2B human bronchial epithelial cell line | Fold change GNA14 (NM_004297) | 8.515
CCC(C)=O [2-Butanone, 2-butanone] | BEAS-2B human bronchial epithelial cell line | Fold change GNA14 (NM_004297) | 3.512
CCCC(C)=O [2-Pentanone, 2-pentanone] | BEAS-2B human bronchial epithelial cell line | Fold change GNA14 (NM_004297) | 8.261

====

# Fold change SEPT14 (NM_207366) annotations
tested on: BEAS-2B human bronchial epithelial cell line; assay: Gene expression change by high-throughput RNA sequencing (NextSeq 500) in ketone-exposed BEAS-2B cells; format: cell-based; conditions: IC20 conc.: Acetone 71.90, 2-Butanone 106.21, 2-Pentanone 39.38, 2-Hexanone 52.51, 2-Heptanone 20.22 mM
Endpoint label: Fold change SEPT14 (NM_207366)

Molecule | Quantitative result
CCC(C)=O [2-Butanone, 2-butanone] | 0.217
CCCC(C)=O [2-Pentanone, 2-pentanone] | 0.218
CCCCCC(C)=O [2-Heptanone, 2-heptanone] | 0.214
CC(C)=O [Acetone, acetone] | 0.214
CCCCC(C)=O [2-Hexanone, 2-hexanone] | 0.214

====

Below: a set of entries, each annotated with reported Fold change SPOCK2 (NM_001244950).
system: BEAS-2B human bronchial epithelial cell line; assay: Gene expression change by high-throughput RNA sequencing (NextSeq 500) in ketone-exposed BEAS-2B cells; format: cell-based; conditions: IC20 conc.: Acetone 71.90, 2-Butanone 106.21, 2-Pentanone 39.38, 2-Hexanone 52.51, 2-Heptanone 20.22 mM

Compound | Fold change SPOCK2 (NM_001244950)
CCCCCC(C)=O [2-Heptanone, 2-heptanone] | 2.838
CCCCC(C)=O [2-Hexanone, 2-hexanone] | 3.833
CC(C)=O [Acetone, acetone] | 5.054
CCCC(C)=O [2-Pentanone, 2-pentanone] | 2.181
CCC(C)=O [2-Butanone, 2-butanone] | 8.426

====

system: BEAS-2B human bronchial epithelial cell line; assay: Gene expression change by high-throughput RNA sequencing (NextSeq 500) in ketone-exposed BEAS-2B cells; type: cell-based; conditions: IC20 conc.: Acetone 71.90, 2-Butanone 106.21, 2-Pentanone 39.38, 2-Hexanone 52.51, 2-Heptanone 20.22 mM
Recorded measurements of Fold change CALML3 (NM_001286399), one per entry
Endpoint label: Fold change CALML3 (NM_001286399)

Molecule | Endpoint label | Result
CCCCC(C)=O [2-Hexanone, 2-hexanone] | Fold change CALML3 (NM_001286399) | 0.354
CCCCCC(C)=O [2-Heptanone, 2-heptanone] | Fold change CALML3 (NM_001286399) | 0.354
CCC(C)=O [2-Butanone, 2-butanone] | Fold change CALML3 (NM_001286399) | 0.356
CC(C)=O [Acetone, acetone] | Fold change CALML3 (NM_001286399) | 0.354
CCCC(C)=O [2-Pentanone, 2-pentanone] | Fold change CALML3 (NM_001286399) | 0.356

====

Tested on: BEAS-2B human bronchial epithelial cell line
Experiment: Gene expression change by high-throughput RNA sequencing (NextSeq 500) in ketone-exposed BEAS-2B cells
Format: cell-based
Details: IC5 conc.: Acetone 5.38, 2-Butanone 22.27, 2-Pentanone 5.24, 2-Hexanone 14.82, 2-Heptanone 5.05 mM
Experimental: RNA was extracted from cell samples of ketone-exposed and non-ketone-exposed groups using a TRIzol reagent (Life Technologies, USA) in accordance with the manufacturer's directions to isolate total RNA and the total RNA was purified using a RNeasy mini kit (Qiagen, USA). The concentration of each total RNA sample was determined by a ND-2000 spectrophotometer (Thermo Inc., DE, USA) as a spectrophotometer and Agilent 2100 Bioanalyzer (Agilent Technologies, USA). […]
The reader will find reported Fold change CALML3 (NM_001286399) values listed item by item below.

Compound string | Tested target | Fold change CALML3 (NM_001286399)
CCCCCC(C)=O | BEAS-2B human bronchial epithelial cell line | 0.354
CC(C)=O | BEAS-2B human bronchial epithelial cell line | 0.354
CCCC(C)=O | BEAS-2B human bronchial epithelial cell line | 0.354
CCC(C)=O | BEAS-2B human bronchial epithelial cell line | 0.356
CCCCC(C)=O | BEAS-2B human bronchial epithelial cell line | 0.358

====

Tested on: BEAS-2B human bronchial epithelial cell line
Assay: Gene expression change by high-throughput RNA sequencing (NextSeq 500) in ketone-exposed BEAS-2B cells
Assay type: cell-based
Conditions: IC20 conc.: Acetone 71.90, 2-Butanone 106.21, 2-Pentanone 39.38, 2-Hexanone 52.51, 2-Heptanone 20.22 mM
Description: RNA was extracted from cell samples of ketone-exposed and non-ketone-exposed groups using a TRIzol reagent (Life Technologies, USA) in accordance with the manufacturer's directions to isolate total RNA and the total RNA was purified using a RNeasy mini kit (Qiagen, USA). The concentration of each total RNA sample was determined by a ND-2000 spectrophotometer (Thermo Inc., DE, USA) as a spectrophotometer and Agilent 2100 Bioanalyzer (Agilent Technologies, USA). […]

Compound string | Fold change ZNF487 (NR_026693)
CCCCCC(C)=O | 0.354
CCCC(C)=O | 0.356
CCC(C)=O | 0.356
CCCCC(C)=O | 0.354
CC(C)=O | 0.354

Value source: patent US20210115509A1
